Sourced from the Immune Epitope Database (IEDB)

target: HLA-B*15:01; experiment: IEDB peptide-MHC binding, purified MHC/direct/fluorescence; filed as Kd, often an IC50 or EC50 that approximates it; bounds were set here for any values at or beyond the usual limits of such assays; settings: source organism: Burkholderia mallei
ATTRIBUTE MEASURED: Kd (nM)
// units = nM; emit number, no label

Look up and report measured Kd (HLA-B*15:01) for the following sequence: YMKAPSGAL
38.5

* * *

target: HLA-A*26:01; assay: IEDB peptide-MHC binding, purified MHC/direct/fluorescence; filed as Kd, often an IC50 or EC50 that approximates it; bounds were set here for any values at or beyond the usual limits of such assays; conditions: source organism: Brucella suis 1330
ATTRIBUTE MEASURED: Kd

Look up and report measured Kd (HLA-A*26:01) for the following sequence: IEVKFHPIL
≥ 20 µM

* * *

target: HLA-B*27:20; assay: IEDB peptide-MHC binding, purified MHC/competitive/fluorescence; filed as Kd, often an IC50 or EC50 that approximates it; bounds were set here for any values at or beyond the usual limits of such assays; conditions: source organism: Vibrio vulnificus YJ016
ATTRIBUTE MEASURED: pKd
Note: pKd values are expressed as the negative base-10 logarithm of concentration in M.

Please report pKd for the following sequence: KMFNRASYF
8.92

* * *

molecular target: HLA-A*02:01; assay: IEDB peptide-MHC binding, purified MHC/direct/fluorescence; filed as Kd, often an IC50 or EC50 that approximates it; bounds were set here for any values at or beyond the usual limits of such assays; conditions: source organism: Human immunodeficiency virus 1
ATTRIBUTE MEASURED: Kd

Please report Kd for the following sequence: ATPQDLNTM
≥ 28.8 µM

* * *

Would you kindly list Kd for each of these sequences?
biological target: HLA-B*27:05; experiment: IEDB peptide-MHC binding, purified MHC/direct/fluorescence; filed as Kd, often an IC50 or EC50 that approximates it; bounds were set here for any values at or beyond the usual limits of such assays; conditions: source organism: SARS-CoV1
// units = µM; emit number, no label

Please report Kd for the following sequence: RHYSASFKK
0.282

Please report Kd for the following sequence: KLFAAETLK
2.18

* * *

molecular target: HLA-B*15:42; assay: IEDB peptide-MHC binding, purified MHC/competitive/fluorescence; filed as Kd, often an IC50 or EC50 that approximates it; bounds were set here for any values at or beyond the usual limits of such assays; settings: source organism: Yellow fever virus 1899/81
pKd: −log10 of the molar value.
ATTRIBUTE MEASURED: pKd

Look up and report measured pKd (HLA-B*15:42) for the following sequence: REMHHLVEF
≤ 5.30

* * *

target: HLA-B*48:01; experiment: IEDB peptide-MHC binding, purified MHC/direct/fluorescence; filed as Kd, often an IC50 or EC50 that approximates it; bounds were set here for any values at or beyond the usual limits of such assays; conditions: source organism: Brucella abortus
ATTRIBUTE MEASURED: Kd

Please report Kd for the following sequence: RFRCVGPAP
≥ 20 µM

* * *

target: HLA-B*57:01; assay: IEDB peptide-MHC binding, purified MHC/direct/fluorescence; filed as Kd, often an IC50 or EC50 that approximates it; bounds were set here for any values at or beyond the usual limits of such assays; settings: source organism: Marburg virus - Musoke, Kenya, 1980
pKd: −log10 of the molar value.
ATTRIBUTE MEASURED: pKd

Please report pKd for the following sequence: YHLGGIEGL
≤ 4.70

* * *

target: HLA-B*51:01; experiment: IEDB peptide-MHC binding, purified MHC/competitive/radioactivity; filed as Kd, often an IC50 or EC50 that approximates it; bounds were set here for any values at or beyond the usual limits of such assays; details: source organism: Hepatitis C virus (isolate 1)
pKd: −log10 of the molar value.
ATTRIBUTE MEASURED: pKd

Look up and report measured pKd (HLA-B*51:01) for the following sequence: ATDALMTGY
≤ 4.11

* * *

molecular target: HLA-B*44:02; experiment: IEDB peptide-MHC binding, purified MHC/direct/fluorescence; filed as Kd, often an IC50 or EC50 that approximates it; bounds were set here for any values at or beyond the usual limits of such assays; settings: source organism: Coxiella burnetii
ATTRIBUTE MEASURED: Kd (µM)
// units = µM; emit number, no label

Please report Kd for the following sequence: HEGDIVPLF
6

* * *

target: HLA-A*31:01; assay: IEDB peptide-MHC binding, purified MHC/direct/fluorescence; filed as Kd, often an IC50 or EC50 that approximates it; bounds were set here for any values at or beyond the usual limits of such assays; conditions: source organism: Escherichia coli O6
ATTRIBUTE MEASURED: Kd (µM)
// units = µM; emit number, no label

Please report Kd for the following sequence: KTTLFHTFK
0.0304

* * *

target: HLA-A*68:02; assay: IEDB peptide-MHC binding, purified MHC/direct/fluorescence; filed as Kd, often an IC50 or EC50 that approximates it; bounds were set here for any values at or beyond the usual limits of such assays; conditions: source organism: Brucella abortus
ATTRIBUTE MEASURED: Kd

Please report Kd for the following sequence: RFRCVGPAP
≥ 20 µM

* * *

target: HLA-B*35:01; test: IEDB peptide-MHC binding, purified MHC/competitive/radioactivity; filed as Kd, often an IC50 or EC50 that approximates it; bounds were set here for any values at or beyond the usual limits of such assays; conditions: source organism: SARS coronavirus Tor2
ATTRIBUTE MEASURED: Kd (µM)
// units = µM; emit number, no label

Please report Kd for the following sequence: MPASWVMRI
0.206

Please report Kd for the following sequence: APHGVVFLHV
4.36

* * *

target: HLA-B*44:03; experiment: IEDB peptide-MHC binding, purified MHC/competitive/radioactivity; filed as Kd, often an IC50 or EC50 that approximates it; bounds were set here for any values at or beyond the usual limits of such assays; details: source organism: Dengue virus 3 Singapore/8120/1995
ATTRIBUTE MEASURED: Kd (nM)
// units = nM; emit number, no label

Look up and report measured Kd (HLA-B*44:03) for the following sequence: KEEHSSTWHY
205

* * *

biological target: HLA-B*07:02; test: IEDB peptide-MHC binding, purified MHC/direct/fluorescence; filed as Kd, often an IC50 or EC50 that approximates it; bounds were set here for any values at or beyond the usual limits of such assays; conditions: source organism: Burkholderia mallei ATCC 23344
ATTRIBUTE MEASURED: Kd (nM)
// units = nM; emit number, no label

Please report Kd for the following sequence: YMKAPSGAL
9

* * *

biological target: HLA-B*58:01; test: IEDB peptide-MHC binding, purified MHC/direct/fluorescence; filed as Kd, often an IC50 or EC50 that approximates it; bounds were set here for any values at or beyond the usual limits of such assays; conditions: source organism: SARS-CoV1
ATTRIBUTE MEASURED: pKd
Note: pKd values are expressed as the negative base-10 logarithm of concentration in M.

Please report pKd for the following sequence: CADGTRHTY
5.92

* * *

target: HLA-B*51:01; assay: IEDB peptide-MHC binding, purified MHC/competitive/radioactivity; filed as Kd, often an IC50 or EC50 that approximates it; bounds were set here for any values at or beyond the usual limits of such assays; settings: source organism: Triticum aestivum
ATTRIBUTE MEASURED: pKd
Note: pKd values are expressed as the negative base-10 logarithm of concentration in M.

Look up and report measured pKd (HLA-B*51:01) for the following sequence: QPYPQPQPQY
4.98

* * *

target: HLA-A*03:01; assay: IEDB peptide-MHC binding, purified MHC/competitive/radioactivity; filed as Kd, often an IC50 or EC50 that approximates it; bounds were set here for any values at or beyond the usual limits of such assays; settings: source organism: Dengue virus 1 Brazil/97-11/1997
ATTRIBUTE MEASURED: pKd
Note: pKd values are expressed as the negative base-10 logarithm of concentration in M.

Look up and report measured pKd (HLA-A*03:01) for the following sequence: SIFKLTYQNK
7.82

* * *

molecular target: HLA-A*02:01; assay: IEDB peptide-MHC binding, purified MHC/competitive/radioactivity; filed as Kd, often an IC50 or EC50 that approximates it; bounds were set here for any values at or beyond the usual limits of such assays; details: source organism: Dengue virus 4 Dominica/814669/1981
ATTRIBUTE MEASURED: pKd
Note: pKd values are expressed as the negative base-10 logarithm of concentration in M.

Please report pKd for the following sequence: TLATGPILTL
7.18

* * *

target: HLA-B*58:01; assay: IEDB peptide-MHC binding, purified MHC/competitive/fluorescence; filed as Kd, often an IC50 or EC50 that approximates it; bounds were set here for any values at or beyond the usual limits of such assays; conditions: source organism: Mycobacterium tuberculosis variant bovis BCG str. Pasteur 1173P2
ATTRIBUTE MEASURED: Kd

Please report Kd for the following sequence: RVACRDVEV
≥ 5 µM
